Tested on: MS2 coat protein
Assay remarks: apparent KD of MS2 coat protein; designed switch direction (-1 OFF switch, 1 ON switch): -1; higher = weaker reporter binding
Condition parameters: Eterna round: R95; input ligand: microRNA oligo, concentration not stated
Response key: Satisfied means apparent KD of MS2 coat protein >= 0.03 µM; Not satisfied means apparent KD of MS2 coat protein < 0.03 µM.

- CAGUACUACAAGCUAUGGGACAUGAGGAUCACCCAUGUUCGUCUUAUUGAUCUAGGUACGCUGACGUACCUAGAUCU [JL-sv1-2.19 Brourd mod] (puzzle: Sensor v3, turn-off variant 1): Not satisfied
- AACGACUGAGGAUAUACAUGAGGAUCACCCAUGUAUUGAAAUACGUGCUUGGUCAACUGUAGAAGGCAGAAUAA [Oresza] (puzzle: Exclusion 3): Not satisfied
- CCUGCACAUGAGGAUCACCCAUGUCAGGAUAUCUCGCCGUCGGCUUGCCGACGGUAUUAGAGAAGGGACACGGG [JL Tixe mod 1] (puzzle: Exclusion 1): Not satisfied
- GAGUAGUAAGGAUAUAGUAGGAGGGAGAAGAGAGGAGAGAACUAGAAGGUACAUGAGGAUCACCCAUGUUGAGA [JR_Exclu4_Sub083] (puzzle: Exclusion 4): Not satisfied
- AGUUGGCGAGGAUAUACAUGAGGAUCACCCAUGUGAGAGAAUAAAGUGAGGAAGAAAAGUAGAAGGCGCUGACG [Mat - Exclusion 3 - Mod of Salish D7] (puzzle: Exclusion 3): Satisfied

Let us examine a further case.
Ask: Decide: is the reported value of apparent KD of MS2 coat protein for AAAACUAACACGAAAGUGUUAGUAAAAUAAGCUUGUGGUACAUGAGGAUCACCCAUGUCCUCAUAAGCUCGUCUUAU [Mat - Sensor v3 - Turn-off var 2 - D44] (puzzle: Sensor v3, turn-off variant 2) equal to or greater than 0.03 µM?
Result: Satisfied

* * *

Tested on: K4 kissing-loop RNA reporter;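 further: bound reporter read as fluorescence of individual clusters on recovered sequencing chips by microscopy, with normalized cluster intensities fitted with a binding model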
Assay remarks: apparent KD of K4 kissing-loop reporter; higher = weaker reporter binding
Condition parameters: Eterna round: R107; input ligand: arginine 13.2 mM
Binary classification by apparent KD of K4 kissing-loop reporter, with 200 nM as an inclusive lower bound for Criterion met; all other cases are Criterion not met.

These recorded examples may help you get a feel for the data.
* CGCAGGAUGGAAGGAUAUGGGAGUUGACGUCGCCGAGCUAACCUUCUGCACGGAGUGAUGUUUAGACCAGAAGGUCCUCGGAGCA [theeternabot_exclusion_KL_FMN_B_17] | Criterion met
* GGCGCCAGGAAAGGAUAUCUAAGUCUAUUAUCAAGAAUUGCCUCAAGAUCGGAGUGAUGUUCCCAGAGAGAAGGUUCUAUCCGCU [theeternabot_exclusion_KL_FMN_B_38] | Criterion not met
* UGACUGGAUGGAAGGAGCGCUAAACUCCUAGUGAUGUUAGGGACAUGAGGCACAGCCUUGAAGCAGGUAGGUCGCCAUCUAGUCU [FiskerMod 28 - Jieux - Same State - Arginine B] | Criterion not met

Ask: Threshold query (apparent KD of K4 kissing-loop reporter >= 200 nM) on GUACGCUCUCGAGUGAUGUUCGGUAAUCGCGAGGAUAUCGCUUUUGCGAGAAGGCGCGGAAUGAGGAAACUCGUUCUGAGUGUAC [FMN A 23]
Result: Criterion met

Ask: Textbook exercise: given the entry UGAUAGGACAGAAGGAGCGGGAGUGAUGUUCCCAAAUGGAUAGGUCGACAAAGUCGACCCUCCCAGGUAGGUCGCUGUCCUAUCU [ArgBX 7 #SwitchBubble #StaticStem] , state whether its apparent KD of K4 kissing-loop reporter is greater than or equal to 200 nM.
Result: Criterion met

Ask: Check this sequence for apparent KD of K4 kissing-loop reporter at or above 200 nM: CGCCGUAAGGCGGUCGCUCCCACUCCGGAAGGAGCGCCCGGAAGGGCAGGUAGGUCGCCGGAGUGAUGUUCCGGUGGAGGGACCG [#2 Exclusion - Arginine A Attempt #9 (Inspired by Omei)]
Result: Criterion met

Ask: Evaluate GGAAUGCUGUAAGGAUAUCUCGGACGGUUACUCCGUUUCUCGCGUGUAAGAAUCUGAGUGAUGUUUAGAGAAGGUACGCUGGUUA [theeternabot_exclusion_KL_FMN_B_21] : apparent KD of K4 kissing-loop reporter at minimum 200 nM?
Result: Criterion met

Ask: Given the entry UACAAACGUAGUGAUGUUACGUACUCUGAUACCAGACAACUCUAAGUCCCUUGGCAGCAGUCACUUAGCUUAUUAUUUUCUCAAA [JR_Nu_ExcTheophyA_Sub026] , answer whether its apparent KD of K4 kissing-loop reporter meets or surpasses 200 nM.
Result: Criterion not met

Ask: Evaluate `UCCUGCAAUCAACCACGAAAGUGGUUCGAUACCAGAGUCGAAAGACUCCCUUGGCAGCGAGUGAUGUUCGAGCAGGUAAAAUAAA` : apparent KD of K4 kissing-loop reporter at minimum 200 nM?
Result: Criterion met

Ask: Please indicate if the recorded apparent KD of K4 kissing-loop reporter for ACCGCAUUGGGAUGAUCCCAAUGCGCUGGUCGAGGACCGGUACGGCCGCCACUCGUCCAGUGAUGUUGGAAUUGGGCUACUGAAG [KL-XTryp-A11] meets or exceeds 200 nM.
Result: Criterion not met

Ask: Decide: is the reported value of apparent KD of K4 kissing-loop reporter for UAUCUAUGCUCGGCCGCCACUAGGACCGGGUAGUCUCUAGUGAUGUUAGUCUCUACGGCCGCCACUAGGACCGGGAGUGUAGAUA [KL-SSTryp-B16 #DoubleAptamer] equal to or greater than 200 nM?
Result: Criterion met

* * *

Quick reference: apparent KD of MS2 coat protein of the listed items.
Test system: MS2 coat protein
Assay remarks: apparent KD of MS2 coat protein; designed switch direction (-1 OFF switch, 1 ON switch): -1; higher = weaker reporter binding
Condition parameters: input ligand: none
Enter your answer as a number in nM; do not include the unit.

# annotated cases, reported apparent KD of MS2 coat protein shown
- AUAAUGUCAGGAUAUCAGUCGUACAGCUUCGGCUGUACGACUGAGAAGGGACAUGAGGAUCACCCAUGUGGUUA [E4/7-A1] (Eterna round: R97, puzzle: Exclusion 4): 228
- CCACUGUCAGGAUAUCGUGCAUAACGUUAACAAUUUAUGUGCGAGAAGGGACAUGAGGAUCACCCAUGUAAACG [Omei Ex4 A28PK4] (Eterna round: R97, puzzle: Exclusion 4): 166
- UAUUAGCAAGUAAGAUCCCACAUGAGGAUCACCCAUGUGCUCGUCUUAUAAGGUACUGUGACGAAAGUCACGGUACC [Sensor 3, v1 - 95 v1] (Eterna round: R97, puzzle: Sensor, turn-off variant 1): 19.2
- GGUUUGGGAGGAUAUGGUUUGAAUAACAUGAGGAUCACCCAUGUAAAUAGAUCUUCUAGGCCAGAAGGCUCGGGCC [-22.1, -20.72 kcal, A 28%] (Eterna round: R97, puzzle: Exclusion 5): 27.8
- UUCAGUCAUCCUUAUUGUUACAUGAGGAUCACCCAUGUUUGUUUAAUUAAGUUUUGUAAGUUUGUUGUUCGUUUUAU [JR_STOV1_v2_Sub074] (Eterna round: R97, puzzle: Sensor, turn-off variant 1): 173

Read the next record carefully.
Ask: Enter apparent KD of MS2 coat protein (test system MS2 coat protein) for UGCAGACGAGGAUAUAGAUUUGAUAACAUGAGGAUCACCCAUGUGAUCGAUAGAUCAGAUUUAGAAGGCGUCUGCA [E5/8-A2] (Eterna round: R97, puzzle: Exclusion 5)
Result: 529

* * *

System: MS2 coat protein
Assay remarks: apparent KD of MS2 coat protein; higher = weaker reporter binding
Condition parameters: Eterna round: R101; input ligand: none
Assign Criterion met whenever apparent KD of MS2 coat protein does not fall below 30 nM; assign Criterion not met whenever it does.

Study these solved cases before continuing.
* AGACCUGCUCAGAAGGUGGGAACGAGGCUGGAAACAGCCUCGAAAUUAAAUCCUUGAGGAUCACCCAAGGAUAUGAGCAGGUCA [#SharedSequence - IExNG2: 12] (puzzle (switch architecture): Inverted Exclusion NG 2) | Criterion not met
* GUAGCUAUCGGAGGAUAUUCAUACCGGAAACGGACAUGAGGAUCACCCAUGUGGCGAAAGCCAUGGGAGAAGGCCGAUAGCUAC [jl-sng2-3.01 #MUTATE_MAP] (puzzle (switch architecture): Same State NG 2) | Criterion met
* CUCCCUCCCUCCCUCCCUCCCUCCGAGGAUAUCCCAAACUCCCUCCCUCCCUCCCUCCCAAAUUCCCAGAAGGCCCUUUUUCCC [2nd design] (puzzle (switch architecture): Small Loop Same State NG 3) | Criterion met
* UGUGUUAUCGGAGGAUAUCGAUAUCAAACAUGAGGAUCACCCAUGUUGAGGAUCACCCAUGUCCACGAGAAGGCCGGCGUACUG [My 7th design] (puzzle (switch architecture): Same State NG 2) | Criterion not met
* GGUCGACCUCAAGGAUAUGGACUGCAAAGCAGUCCAGAAGGUGAGGAUCACCCACCUACGGUCAGGAAACUGACCGAUCGACCA [#SharedSequence - ExNG1-2] (puzzle (switch architecture): Exclusion NG 1) | Criterion not met
* AGAGCUGCUCAGAAGGAGGAUCACCCUUUCGAAAGAAAUACGGAGGCUGAAAAGCCUCCGAAAUCUUAGGAUAUGAGCAGCUCA [#SharedSequence - IExNG2: 6] (puzzle (switch architecture): Inverted Exclusion NG 2) | Criterion met
* UAAAUAGAUCCUAGAGGAUCACCCUAGGAUAUCACCGUCGAGGUGCCAUAAUGGCACCUCGACGGUGAGAAGGAGGGAAAUAAA [#SharedSequence - SLExNG3: 2] (puzzle (switch architecture): Small Loop Exclusion NG 3) | Criterion met
* CAAUUGGCACAGAAGGGUGACAUGAGGAUCACCCAUGUAGCGUGGCUCUCAGGAGGAGCCACGCCACAGGAUAUGUGCCGGCAC [Anrilaage] (puzzle (switch architecture): Inverted Same State NG 2) | Criterion met

Now look at this one.
Ask: Hi team, for AAUAAACAAUAAAAGACUGGAGCAAACUUCUGAGGAUCACCCAGAAGGCGUCACCUAAUAGGUGACGAGGAUAUGGAGCUCCAG [#SharedSequence IExNG# - 2] (puzzle (switch architecture): Inverted Exclusion NG 3) , is the recorded apparent KD of MS2 coat protein at or above 30 nM?
Result: Criterion not met
